molecular target: HLA-DR DRB3*0101 (DR52) (Homo sapiens, UniProt P01903+P79483); experiment: biochemical; type: binding
attribute_measured: pIC50
Conceptually, pIC50 converts a concentration in mol/L into minus its log10.

Input CC(C)C[C@H](NC(=O)CNC(=O)[C@H](Cc1ccccc1)NC(=O)[C@H](CCC(=O)O)NC(=O)[C@H](CCCCN)NC(=O)[C@@H](N)Cc1c[nH]c2ccccc12)C(=O)N[C@@H](CC(=O)O)C(=O)N[C@@H](CO)C(=O)N[C@H](C(=O)N[C@@H](CCC(=O)O)C(=O)N[C@@H](CC(C)C)C(=O)N[C@@H](C)C(=O)N[C@@H](Cc1c[nH]cn1)C(=O)N[C@@H](Cc1ccc(O)cc1)C(=O)N[C@@H](CC(=O)O)C(=O)O)C(C)C . Output pIC50: 6.08

pIC50 recorded for this molecule, CC[C@H](C)[C@H](NC(=O)[C@H](CCC(N)=O)NC(=O)[C@@H](NC(=O)[C@H](Cc1ccccc1)NC(=O)[C@H](CC(N)=O)NC(=O)[C@H](Cc1ccc(O)cc1)NC(=O)[C@H](CC(C)C)NC(=O)[C@H](Cc1ccccc1)NC(=O)[C@@H](N)CCCCN)[C@@H](C)O)C(=O)N1CCC[C@H]1C(=O)N[C@@H](Cc1c[nH]cn1)C(=O)N[C@@H](CC(C)C)C(=O)N[C@@H](C)C(=O)NCC(=O)N[C@H](C(=O)O)[C@@H](C)O , is 4.99
